Cited source: patent US20220177583A1

Molecular target: T1, human CLDN6, endogenously expressed on cancer cell lines (human, UniProt P56747 1-220)
T1 construct: also called Endogenous CLDN6+; CLDN6 on ARK2, OVCA429, UMUC4 cells
T1 sequence: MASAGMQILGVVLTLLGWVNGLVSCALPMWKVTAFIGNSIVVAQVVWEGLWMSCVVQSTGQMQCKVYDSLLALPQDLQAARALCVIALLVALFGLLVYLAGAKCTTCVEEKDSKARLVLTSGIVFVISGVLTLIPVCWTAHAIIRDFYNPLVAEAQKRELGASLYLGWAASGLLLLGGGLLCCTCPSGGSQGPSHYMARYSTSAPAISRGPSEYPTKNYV
Test: FACS, OVCA429 cells, 1.5 ug Ab
METRIC_NAME: FACS signal
Number only, no unit.

Task item: For AB4-4 (antibody, V domains shown, Humanized; also called humanized AB 4-4) VH: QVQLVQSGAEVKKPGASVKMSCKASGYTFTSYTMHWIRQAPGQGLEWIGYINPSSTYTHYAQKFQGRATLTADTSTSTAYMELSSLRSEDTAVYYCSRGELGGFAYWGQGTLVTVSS VL: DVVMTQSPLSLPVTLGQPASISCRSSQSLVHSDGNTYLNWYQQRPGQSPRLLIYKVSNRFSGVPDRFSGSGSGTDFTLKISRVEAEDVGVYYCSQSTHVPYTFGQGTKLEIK , what is its reported FACS signal?
Reply: 1200

Task item: For AB18-chim (antibody, V domains shown, Parental antibody prior to humanization ('chim'); also called pre-humanized form of AB18) VH: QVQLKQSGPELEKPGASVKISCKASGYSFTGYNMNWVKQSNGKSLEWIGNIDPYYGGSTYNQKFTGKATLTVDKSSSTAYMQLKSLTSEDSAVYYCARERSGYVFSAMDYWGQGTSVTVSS VL: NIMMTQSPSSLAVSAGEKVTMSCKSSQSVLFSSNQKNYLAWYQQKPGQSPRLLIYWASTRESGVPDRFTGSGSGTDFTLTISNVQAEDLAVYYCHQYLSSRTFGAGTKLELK , what is its reported FACS signal?
Reply: 25500

Task item: For AB9-chim (antibody, V domains shown, Parental antibody prior to humanization ('chim'); also called pre-humanized form of AB9) VH: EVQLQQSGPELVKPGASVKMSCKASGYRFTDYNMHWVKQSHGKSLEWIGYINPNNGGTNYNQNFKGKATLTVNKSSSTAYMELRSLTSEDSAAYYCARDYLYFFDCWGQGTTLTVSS VL: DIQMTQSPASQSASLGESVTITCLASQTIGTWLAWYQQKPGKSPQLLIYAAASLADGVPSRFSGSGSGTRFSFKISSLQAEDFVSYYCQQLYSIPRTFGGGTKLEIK , what is its reported FACS signal?
Reply: 3570
